Test system: KM-20L2
Test: NCI tumour cell line growth inhibition, 48 h
Calls of active or inactive are those of the source. No stated cut-off is given here; in the data, active = GI50 up to about 1.1 µM and inactive = higher.
Your answer must be one of the following: active, inactive

>  <COMPOUND>
C[Si](C)(C)CC(N)=O

>  <CLASS>
inactive

$$$$
>  <COMPOUND>
CCCCOP(=O)(OCCCC)/C(C#N)=C/c1ccco1

>  <CLASS>
inactive

$$$$
>  <COMPOUND>
CN(C)CCC(CCN(C)C)=NO

>  <CLASS>
inactive

$$$$
>  <COMPOUND>
CCOC(=O)[C@H]1Nc2c(cccc2[N+](=O)[O-])[C@H]2OCC[C@@H]12

>  <CLASS>
inactive

$$$$
>  <COMPOUND>
CCOC(=O)C(Cc1cn(S(=O)(=O)c2ccccc2)c2ccccc12)(NC(C)=O)C(=O)OCC

>  <CLASS>
inactive

$$$$
>  <COMPOUND>
COc1cc(/N=N\c2cccc(S(=O)(=O)O)c2)c(C)cc1/N=N\c1ccc(/C=C/c2ccc(/N=[N+](/[O-])c3ccc(/C=C/c4ccc(/N=N\c5cc(C)c(/N=N/c6cccc(S(=O)(=O)O)c6)cc5OC)cc4)c(S(=O)(=O)O)c3)cc2S(=O)(=O)O)cc1

>  <CLASS>
inactive

$$$$
>  <COMPOUND>
COc1cc(C(C#N)NNc2nc(C)cc(O)n2)cc(OC)c1OC (configuration not stated)

>  <CLASS>
inactive

$$$$
>  <COMPOUND>
S=C1OC2CCCC[C@H]2O1 (some centres not stated)

>  <CLASS>
inactive

$$$$

# lookup: test call for `C/C(=N\NC(C)(C)C)c1sc(-c2nc(C)c(/C(C)=N/NC(C)(C)C)s2)nc1C`
inactive

Another compound: `CCOc1ccc([Se][Se]c2ccc(OCC)cc2)cc1`
inactive

What about this compound? CC(=O)OCC12CC(CC1OC(C)=O)c1ccccc12 (configuration not stated)
inactive

Now the same for `Cn1c(=O)[nH]c2c(c1=O)C(=O)CN2`
inactive

Same for COc1cccc2ccc3c(c12)C(=O)OC31CCc2c(C)cccc21 (configuration not stated)
inactive

###

Tested on: 786-0
Experiment: NCI tumour cell line growth inhibition, 48 h
Active and inactive are the calls of the source. Rule as the data show it: active = GI50 up to about 1.1 µM and inactive = higher.
MEASUREMENT KIND: GI50

Worked examples follow.
>  <COMPOUND>
O=c1cc(-c2ccccc2)[nH]c2c(Cl)cccc12

>  <TARGET ENTITY>
786-0

>  <VALUE REPORTED>
26.3 µM (inactive)

$$$$
>  <COMPOUND>
COc1cc([C@@H]2c3cc4c(cc3[C@@H](NCc3ccccc3F)C3COC(=O)[C@@H]32)OCO4)cc(OC)c1O (stereo partly specified)

>  <TARGET ENTITY>
786-0

>  <VALUE REPORTED>
2.81 µM (inactive)

$$$$
>  <COMPOUND>
COC(C)C(O)(C(=O)OCC1=CCN2CCC(O)C12)C(C)(C)O (stereo unspecified)

>  <TARGET ENTITY>
786-0

>  <VALUE REPORTED>
> 100 µM (inactive)

$$$$
>  <COMPOUND>
O=C(O)C(Sc1ccc(Cl)cc1)Sc1ccc(Cl)cc1

>  <TARGET ENTITY>
786-0

>  <VALUE REPORTED>
48 µM (inactive)

$$$$

Suppose we examine the compound `C/C(CC(=O)NCCc1ccccc1)=N\NC(=O)C[n+]1ccccc1` ; what GI50 value has been reported?
> 100 µM (inactive)

Moving on to `COc1ccc(-c2nnc3nc4ccccc4n3c2O)cc1`
> 100 µM (inactive)
